Cited source: ChEMBL document CHEMBL5370694

Experiment: Inhibition of APOL1 isoform G2 variant in human U2OS cells incubated for 80 mins by thallium flux based FLIPR assay
Type: cell-based
List of IC50 values.

MOLECULE_SMILES: O=C(CCc1cc(C2(C(F)(F)F)CC2)[nH]c1-c1ccc(Cl)cc1)N[C@@H]1C(=O)NC[C@H]1O
IC50: 3.98 nM

MOLECULE_SMILES: O=C(CCc1cc(-c2c(F)cc(F)cc2Cl)[nH]c1-c1ccc(Cl)cc1)N[C@@H]1C(=O)NC[C@H]1O
IC50: 0.794 nM

MOLECULE_SMILES: O=C(CCc1cc(C2(C(F)(F)F)CC2)[nH]c1-c1ccc(C(F)(F)F)cc1)N[C@@H]1C(=O)NC[C@H]1O
IC50: 5.01 nM

MOLECULE_SMILES: O=C(CCc1c(-c2ccc(Cl)cc2)[nH]c(C2(C(F)(F)F)CC2)c1F)N[C@@H]1C(=O)NC[C@H]1O
IC50: 5.01 nM

MOLECULE_SMILES: CC(C)(C)c1cc(CCC(=O)N[C@@H]2C(=O)NC[C@H]2O)c(-c2ccc(C(F)(F)F)cc2)[nH]1
IC50: 5.01 nM

MOLECULE_SMILES: O=C(CCc1cc(-c2c(F)cc(F)cc2F)[nH]c1-c1ccc(Cl)cc1)N[C@@H]1C(=O)NC[C@H]1O
IC50: 3.98 nM

====

Biological target: Apolipoprotein L1 (Homo sapiens, UniProt O14791)
Sequence (O14791 whole entry): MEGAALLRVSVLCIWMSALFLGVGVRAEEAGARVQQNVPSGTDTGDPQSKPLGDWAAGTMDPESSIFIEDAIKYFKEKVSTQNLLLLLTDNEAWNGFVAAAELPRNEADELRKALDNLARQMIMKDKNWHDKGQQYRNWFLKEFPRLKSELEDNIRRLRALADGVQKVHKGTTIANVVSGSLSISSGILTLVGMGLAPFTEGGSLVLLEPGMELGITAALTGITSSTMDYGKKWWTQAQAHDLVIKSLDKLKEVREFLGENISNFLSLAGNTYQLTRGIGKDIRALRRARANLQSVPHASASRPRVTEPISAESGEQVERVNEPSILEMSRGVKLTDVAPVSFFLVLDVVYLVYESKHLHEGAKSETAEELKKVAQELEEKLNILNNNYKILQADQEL
Assay: Inhibition of wild type APOL1 containing G0 in human U2OS cells incubated for 80 mins by thallium flux based FLIPR assay

MOLECULE_SMILES: O=C(CCc1cc(C2(C(F)(F)F)CC2)[nH]c1-c1ccc(C(F)(F)F)cc1)N[C@@H]1C(=O)NC[C@H]1O
IC50 / nM: 2.51
--
MOLECULE_SMILES: CC(C)(C)c1cc(CCC(=O)N[C@@H]2C(=O)NC[C@H]2O)c(-c2ccc(C(F)(F)F)cc2)[nH]1
IC50 / nM: 1.58
--
MOLECULE_SMILES: O=C(CCc1cc(C2(C(F)(F)F)CC2)[nH]c1-c1ccc(Cl)cc1)N[C@@H]1C(=O)NC[C@H]1O
IC50 / nM: 2.51
--
MOLECULE_SMILES: O=C(CCc1cc(-c2c(F)cc(F)cc2Cl)[nH]c1-c1ccc(Cl)cc1)N[C@@H]1C(=O)NC[C@H]1O
IC50 / nM: 0.501
--
MOLECULE_SMILES: O=C(CCc1cc(-c2c(F)cc(F)cc2F)[nH]c1-c1ccc(Cl)cc1)N[C@@H]1C(=O)NC[C@H]1O
IC50 / nM: 3.16
--
MOLECULE_SMILES: O=C(CCc1c(-c2ccc(Cl)cc2)[nH]c(C2(C(F)(F)F)CC2)c1F)N[C@@H]1C(=O)NC[C@H]1O
IC50 / nM: 2
